Tested on: IGROV-1
test-method-notes: NCI tumour cell line growth inhibition, 48 h
Calls of active or inactive are those of the source. Cut-off read from the data, not from the text of the source: active = GI50 up to about 1.1 µM and inactive = higher.
property-measured: GI50

>>> reported_measurement("O=C(O)C1C(=O)Oc2c(cccc2[N+](=O)[O-])C1O (stereo not drawn)")
"> 100 µM (inactive)"
>>> reported_measurement("C=CCNC(=O)N(CCCC(NC(C)=O)C(=O)NCc1ccccc1)Cc1ccccc1 (stereo not drawn)")
"> 100 µM (inactive)"
>>> reported_measurement("COc1ccc(NC(C)=O)c(C(O)CCNC(C)=O)c1 (stereo not drawn)")
"> 100 µM (inactive)"

====

Tested on: COLO 205
test-method-notes: NCI tumour cell line growth inhibition, 48 h
The source made the active and inactive calls. Cut-off read from the data, not from the text of the source: active = GI50 up to about 1.1 µM and inactive = higher.
Labels: active, inactive

>>> classification("CC(=O)O[C@@H]1C(=O)N(c2ccccc2)[C@@H]1c1cc2ccccc2c2ccccc12")
"inactive"
>>> classification("N#CCc1nc(O)c2ccccc2n1")
"inactive"
>>> classification("N#Cc1c(=O)c2cc([N+](=O)[O-])ccc2n2c1[nH]c1ccccc12")
"inactive"
>>> classification("CCOP(=O)(OCC)C(Nc1cccc([N+](=O)[O-])c1)c1ccccc1 (configuration not stated)")
"inactive"
>>> classification("CC(N/N=C(\\S)N1CCCCCC1)c1cccnn1 (configuration not stated)")
"active"
>>> classification("O=c1[nH]nc(Cc2ccccc2)n1/N=C/c1ccc(/C=N/n2c(Cc3ccccc3)n[nH]c2=O)cc1")
"inactive"
>>> classification("COc1ccc(C2c3cc4c(cc3OC(O)(CO)C2C(=O)O)OCO4)cc1.COc1ccc(C2c3cc4c(cc3OC3(O)COC(=O)C23)OCO4)cc1 (configuration not stated)")
"inactive"
>>> classification("O=C(C/C(=N/O)C(F)(F)F)c1cccs1")
"inactive"
>>> classification("NNc1c(C(N)=O)c2c(N)ncnc2n1C1OC(CO)C(O)C1O (configuration not stated)")
"active"
>>> classification("O=C1N/C(=N/N=C/c2ccccc2)N/C1=C\\c1c[nH]c2ccccc12")
"inactive"
>>> classification("Cn1c(CO)ccc1-c1ccc(-c2ccc[se]2)[se]1")
"inactive"
>>> classification("CCCCC1c2c([nH]c3ccccc23)C2C(=O)N(c3ccc(OC)cc3)C(=O)C2C1CCC (configuration not stated)")
"inactive"

====

System: RPMI-8226
test-method-notes: NCI tumour cell line growth inhibition, 48 h
Calls of active or inactive are those of the source. Cut-off read from the data, not from the text of the source: active = GI50 up to about 1.1 µM and inactive = higher.
Reported GI50 values for the following compounds.
property-measured: GI50

>>> reported_measurement("Cc1cc(=O)oc2cc(OC(=O)N(CCCl)CCCl)ccc12")
"61.4 µM (inactive)"
>>> reported_measurement("COc1cc(/C=C2\\CCC(C)C3C2=NN(C(C)=O)C3c2cc(OC)c(OC)c(OC)c2)cc(OC)c1OC (centres undefined)")
"36.7 µM (inactive)"
>>> reported_measurement("COc1ccc(Nc2nc3cc(C(F)(F)F)ccc3n3cccc23)cc1OC")
"13.6 µM (inactive)"
>>> reported_measurement("COP(=O)(OC)OCN(C)CC/C=C(\\C)CC/C=C(\\C)CCC=C(C)C")
"10.6 µM (inactive)"
>>> reported_measurement("Cc1ccc(C2(N3CCOCC3)OC(C)(C)c3cccc4cccc2c34)cc1 (centres undefined)")
"16.2 µM (inactive)"
>>> reported_measurement("COc1cc2c(cc1OC)C(Cl)C(c1ccc(Br)cc1)=C2Cl (centres undefined)")
"2.52 µM (inactive)"
>>> reported_measurement("COC(=N)C12C(N)=NC(OC)(OC)C1(C#N)C21C(=O)N(c2ccccc2)N=C1C (centres undefined)")
"> 100 µM (inactive)"
>>> reported_measurement("OCCCCn1cc(Cn2ncc3c(SCc4ccccc4)ncnc32)nn1")
"40.9 µM (inactive)"
>>> reported_measurement("C/C(=C/CC[C@](C)(OC1OC(CO)C(O)C(O)C1OC1OC(C)C(O)C(O)C1O)[C@H]1CC[C@]2(C)[C@@H]1CC[C@@H]1[C@@]3(C)CC[C@H](O)C(C)(C)[C@@H]3C[C@H](O)[C@]12C)CO (some centres undefined)")
"> 100 µM (inactive)"

====

Tested on: SF-539
test-method-notes: NCI tumour cell line growth inhibition, 48 h
The source made the active and inactive calls. Cut-off read from the data, not from the text of the source: active = GI50 up to about 1.1 µM and inactive = higher.
property-measured: GI50

>>> reported_measurement("O=c1[nH]c(Br)nc2c(N3CCCCC3)c[nH]c12")
"> 100 µM (inactive)"
>>> reported_measurement("COc1cc(/C=N\\O)cc(/C=N/O)c1O")
"24.4 µM (inactive)"
>>> reported_measurement("O=c1c2cc(Br)ccc2n(C2OC(CO)C(O)C(O)C2O)c(=S)n1-c1ccccc1 (stereo not drawn)")
"> 100 µM (inactive)"

====

System: M14
test-method-notes: NCI tumour cell line growth inhibition, 48 h
The source made the active and inactive calls. Cut-off read from the data, not from the text of the source: active = GI50 up to about 1.1 µM and inactive = higher.
Reported GI50 values for the following compounds.
property-measured: GI50

>>> reported_measurement("COCCCNC(=O)C1C(=O)C(=O)N(CCCOC)C1=O (stereo not drawn)")
"> 100 µM (inactive)"
>>> reported_measurement("N#CC1CNC(N)NC1N (stereo not drawn)")
"> 100 µM (inactive)"
>>> reported_measurement("O=C1C(Cl)=C(N2CCN(c3ccccn3)CC2)C(=O)c2ncccc21")
"1.6 µM (inactive)"
>>> reported_measurement("COc1cc(NS(=O)(=O)c2ccc(C)cc2)c2nccnc2c1")
"17 µM (inactive)"
>>> reported_measurement("CCCCCCCCC[C@@H]1C[C@@H]2CCC3C(C(=O)OC)=C(C)N=C(N1)N32 (stereo partly drawn)")
"5.46 µM (inactive)"
>>> reported_measurement("O=c1oc2ccccc2cc1-c1cc2ccccn2c1")
"> 100 µM (inactive)"
>>> reported_measurement("O=S(=O)([C-]([I+]c1ccccc1)S(=O)(=O)C(F)(F)C(F)(F)C(F)(F)C(F)(F)F)C(F)(F)C(F)(F)C(F)(F)C(F)(F)F")
"13.6 µM (inactive)"
>>> reported_measurement("Cc1nc(-n2nc(-c3ccccc3)cc2-c2ccccc2)sc1C(/C=C/c1ccc([N+](=O)[O-])cc1)=N/NC(=O)c1ccncc1")
"20.2 µM (inactive)"
>>> reported_measurement("CN/N=C(\\C)C(CN1CCCCC1)C(C1=C(O)c2ccccc2OC1)c1ccccc1 (stereo not drawn)")
"> 100 µM (inactive)"
>>> reported_measurement("Oc1cc2cc(-c3ccccc3)[nH]c2c2ccccc12")
"20.3 µM (inactive)"
>>> reported_measurement("CCCc1c2c([nH]c(=O)c1C)C(=O)c1[nH]c(=O)c(C)c(CCC)c1C2=O")
"1.66 µM (inactive)"
>>> reported_measurement("O=C(Cc1nc2ccccc2o1)C(=O)Nc1cccc(C(F)(F)F)c1")
"> 100 µM (inactive)"
>>> reported_measurement("OC(c1cc2ccccc2[nH]1)C1(c2cccnc2)SCCCS1 (stereo not drawn)")
"51.2 µM (inactive)"
>>> reported_measurement("O=[N+]([O-])/C=C/c1ccc2ccccc2c1")
"3.99 µM (inactive)"
>>> reported_measurement("Cc1ccccc1N(CC(=O)O)S(=O)(=O)c1ccccc1")
"> 100 µM (inactive)"
>>> reported_measurement("Sc1nnc(CCCCCCCCc2nnc(S)o2)o1")
"> 100 µM (inactive)"
>>> reported_measurement("O=C(NN1C(=O)C(Cl)C1c1cccc(O)c1)c1ccccc1O (stereo not drawn)")
"> 100 µM (inactive)"
>>> reported_measurement("CCC(=O)NI1OC(=O)c2ccccc21")
"> 100 µM (inactive)"

====

System: HOP-62
test-method-notes: NCI tumour cell line growth inhibition, 48 h
The source made the active and inactive calls. Cut-off read from the data, not from the text of the source: active = GI50 up to about 1.1 µM and inactive = higher.
Reported GI50 values for the following compounds.
property-measured: GI50

>>> reported_measurement("N#C/C(=C/N1C(=O)/C(=C/c2ccc([N+](=O)[O-])cc2)SC1=S)c1nc2ccccc2s1")
"0.406 µM (active)"
>>> reported_measurement("Cc1cc(=O)oc2cc(OC(=O)N(CCCl)CCCl)ccc12")
"> 100 µM (inactive)"
>>> reported_measurement("COP(=O)(OC)OCN(C)CC/C=C(\\C)CC/C=C(\\C)CCC=C(C)C")
"16.1 µM (inactive)"
>>> reported_measurement("O=C1c2ccccc2C(=O)N1c1ccc(OCCN2CCCCC2)cc1")
"> 100 µM (inactive)"
>>> reported_measurement("COc1cc2c(cc1OC)C(Cl)C(c1ccc(Br)cc1)=C2Cl (stereo not given)")
"17.9 µM (inactive)"

====

System: LOX IMVI
test-method-notes: NCI tumour cell line growth inhibition, 48 h
The source made the active and inactive calls. Rule as the data show it: active = GI50 up to about 1.1 µM and inactive = higher.
property-measured: GI50

>>> reported_measurement("Cc1cc2c(cc1Br)C1(C)CCC(C)C1(C)O2 (stereo not given)")
"18.6 µM (inactive)"
>>> reported_measurement("Nc1ccccc1C(=O)CCc1c[nH]c2ccccc12")
"47.5 µM (inactive)"
>>> reported_measurement("COc1ccc2c3c1OC1C(=O)C=CC4(O)C(C2)NCC[C@@]314 (stereo not given in full)")
"1.91 µM (inactive)"
>>> reported_measurement("O=C1c2ccccc2S(=O)(=O)c2c1cccc2[N+](=O)[O-]")
"2.14 µM (inactive)"
>>> reported_measurement("c1ccc(-c2nc3ccccc3n3c(CN4CCCCC4)nnc23)cc1")
"> 100 µM (inactive)"
>>> reported_measurement("CC(C)c1cccc(C(C)C)c1NC(=S)NN=C1C=C(C(C)(C)C)C(=O)C(C(C)(C)C)=C1")
"18.2 µM (inactive)"
>>> reported_measurement("CN(C)c1ccc(C(C=C2c3ccccc3Sc3ccccc32)=C(C#N)C#N)cc1")
"48.4 µM (inactive)"
>>> reported_measurement("Cc1cc(=O)oc2cc(OC(=O)N(CCCl)CCCl)ccc12")
"59.8 µM (inactive)"
>>> reported_measurement("CCOS(C)(=O)=O [METHANESULFONIC ACID ETHYL ESTER]")
"> 100 µM (inactive)"
>>> reported_measurement("COC(=O)C1=C(C(=O)OC)SC(=CC#CC=C2SC(C(=O)OC)=C(C(=O)OC)S2)S1")
"9.71 µM (inactive)"
>>> reported_measurement("COc1cc(-c2cc(=O)c3c(O)c(OC)c(OC)c(OC)c3o2)ccc1O")
"16.8 µM (inactive)"
>>> reported_measurement("CCCCCCCCCCCC(=O)c1c(O)cccc1O")
"18.8 µM (inactive)"
>>> reported_measurement("[O-][S+](Nc1ccccc1)c1ccc(Cl)cc1 (stereo not given)")
"> 100 µM (inactive)"
>>> reported_measurement("COC1/C=C\\OC2(C)Oc3c(C)c(O)c4c(O)c(c(CN(C)C)c(O)c4c3C2=O)NC(=O)/C(C)=C\\C=C/C(C)C(O)C(C)C(O)C(C)C(OC(C)=O)C1C (stereo not given)")
"17.6 µM (inactive)"
>>> reported_measurement("C[C@]12CC[C@H](OC(=O)Nc3ccccc3)CC1=CC[C@@H]1C2CC[C@]2(C)/C(=N/OC(=O)Nc3ccccc3)CCC12 (stereo not given in full)")
"5.32 µM (inactive)"
>>> reported_measurement("O=c1[nH]c2cc(-c3ccccc3)nc-2nn1-c1c(Cl)cc(Cl)cc1Cl")
"24.3 µM (inactive)"
>>> reported_measurement("CCc1nc(N)nc(N)c1-c1ccc([N+](=O)[O-])c(Cl)c1")
"1.44 µM (inactive)"
>>> reported_measurement("COc1cc(/C=C2\\CCC(C)C3C2=NN(C(C)=O)C3c2cc(OC)c(OC)c(OC)c2)cc(OC)c1OC (stereo not given)")
"> 100 µM (inactive)"
>>> reported_measurement("O=c1[nH]nc(Cc2ccccc2)n1CCCl")
"> 100 µM (inactive)"
>>> reported_measurement("NCCCCCNOCCCN")
"> 100 µM (inactive)"
>>> reported_measurement("CC1=C(O)C(=O)C2C(=O)C1C(C)C2c1ccc(C)cc1 (stereo not given)")
"> 100 µM (inactive)"
>>> reported_measurement("CCNc1ncnc2nn[nH]c12")
"> 100 µM (inactive)"
>>> reported_measurement("O=c1[nH]c2ccc(Cl)cc2o1")
"> 100 µM (inactive)"
>>> reported_measurement("COc1ccc(C2SCC(=O)N2NC(=O)c2ccncc2)cc1F (stereo not given)")
"> 100 µM (inactive)"
>>> reported_measurement("COC(O)C(=O)c1c2c(cc3c1CCC3)CCC2 (stereo not given)")
"> 100 µM (inactive)"
>>> reported_measurement("CCOC(=O)C1=C(C)NC(=O)NC1c1ccc(OC)cc1OC (stereo not given)")
"> 100 µM (inactive)"
>>> reported_measurement("Cc1cc2c(SCc3ccccc3Cl)nc(N)nc2nc1C")
"> 100 µM (inactive)"
>>> reported_measurement("Cc1cc(C)n(-c2nc(C)c(CCO)c(=O)[nH]2)n1")
"> 100 µM (inactive)"
>>> reported_measurement("CCOC(=O)/C(=C\\c1ccccc1)C(=O)O")
"> 100 µM (inactive)"
>>> reported_measurement("O=C(O)/C=c1/c2ccccc2n2nc3ccccc3c12")
"21.9 µM (inactive)"
>>> reported_measurement("O=S(=O)([C-]([I+]c1ccccc1)S(=O)(=O)C(F)(F)C(F)(F)C(F)(F)C(F)(F)F)C(F)(F)C(F)(F)C(F)(F)C(F)(F)F")
"14.4 µM (inactive)"
>>> reported_measurement("COc1cc2c(cc1OC)C(Cl)C(c1ccc(Cl)c(Cl)c1)=C2Cl (stereo not given)")
"2.24 µM (inactive)"
>>> reported_measurement("O=C1CCCCCCCCCCC1CCCCCBr (stereo not given)")
"19 µM (inactive)"
>>> reported_measurement("O=C(NN1C(=O)C(Cl)C1c1cccc(O)c1)c1ccccc1O (stereo not given)")
"> 100 µM (inactive)"
>>> reported_measurement("CC1=CC(=O)/C(=C/n2c(=S)[nH]c3ccccc32)C(=O)O1")
"> 100 µM (inactive)"
